Field: log10 MRT. Provide a value for each of the molecules that follow.
- Procedure Text: clinical
- Settings: human, in vivo, iv
Hi team, quick reminder: these entries are log10 of MRT (h).

**Q:** For CC1CNc2c(cccc2S(=O)(=O)N[C@@H](CCCNC(=N)N)C(=O)N2CC[C@@H](C)C[C@@H]2C(=O)O)C1 (stereo partly drawn) , what is its reported log10 MRT?
**A:** -0.24

**Q:** Please answer likewise for OCCN1CCN(CCCN2c3ccccc3Sc3ccc(Cl)cc32)CC1
**A:** 1.04

**Q:** Please answer likewise for COc1ccc([C@]2(C#N)CC[C@@H](C(=O)O)CC2)cc1OC1CCCC1
**A:** 0.93

**Q:** Please answer likewise for N=C(N)c1ccc(C(=O)N[C@@H](Cc2ccc(O)cc2)C(=O)N2CCC(OCC(=O)O)CC2)cc1
**A:** 0.40

**Q:** Please answer likewise for CO[C@@]1(NC(=O)C(C(=O)O)c2ccc(O)cc2)C(=O)N2C(C(=O)O)=C(CSc3nnnn3C)CO[C@@H]21 (stereo partly drawn)
**A:** 0.59

**Q:** Please answer likewise for CCC#CC[C@H](C)[C@H](O)C#C[C@@H]1[C@H]2C/C(=C/COCC(=O)O)C[C@H]2C[C@H]1O
**A:** -0.46

**Q:** Please answer likewise for COc1ccc(-c2nc3ccc(C4=NNC(=O)CC4C)cc3[nH]2)cc1 (stereo not drawn)
**A:** 0.34

**Q:** Please answer likewise for Cc1ncc([N+](=O)[O-])n1CCO
**A:** 0.89
